# credit: patent US10968178B2

TEST_TARGET: human IP6K2 (Homo sapiens, UniProt Q9UHH9)
Construct: human IP6K2 (1-426) gene; GST; made in house; host or cells: Sf-9 insect cells
Sequence (Q9UHH9 1-426): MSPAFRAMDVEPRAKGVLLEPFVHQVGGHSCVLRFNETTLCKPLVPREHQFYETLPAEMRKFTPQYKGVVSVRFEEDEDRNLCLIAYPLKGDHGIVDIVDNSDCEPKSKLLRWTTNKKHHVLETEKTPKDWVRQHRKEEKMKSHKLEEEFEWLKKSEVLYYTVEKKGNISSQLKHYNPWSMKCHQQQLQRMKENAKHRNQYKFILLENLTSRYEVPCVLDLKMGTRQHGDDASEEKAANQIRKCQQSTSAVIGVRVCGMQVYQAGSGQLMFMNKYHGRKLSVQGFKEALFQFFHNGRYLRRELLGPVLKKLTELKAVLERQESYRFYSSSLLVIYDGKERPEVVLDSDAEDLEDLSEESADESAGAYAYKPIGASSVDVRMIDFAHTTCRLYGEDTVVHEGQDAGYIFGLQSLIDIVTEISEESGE
TEST_METHOD_NOTES: IP6K enzyme inhibitory assay (ADP-Glo Kinase Assay), human IP6K2
Type: biochemical
CONDITION_SUMMARY: compound concentration 0.1 μM; read-out: ADP-Glo method inhibitory rate (%) human IP6K2
REPORTED_PROPERTY: inhibition at 0.1 µM (%)

COc1cc(Cl)ccc1O[C@H]1CC[C@@]2(CC1)C(=O)Nc1ccc(C(=O)O)cc12 [Example 82]    101
O=C(O)c1ccc2c(c1)[C@]1(CC[C@@H](Oc3ncc(C(F)(F)F)cc3F)CC1)C(=O)N2 [Example 27]    93
O=C(O)c1ccc2c(c1)[C@]1(CC[C@@H](Oc3ncccc3Cl)CC1)C(=O)N2 [Example 24]    92
N#Cc1cc(Cl)cnc1O[C@H]1CC[C@]2(CC1)C(=O)Nc1ccc(C(=O)O)nc12 [Example 110]    96

* * *

TEST_TARGET: human IP6K3 (Homo sapiens)
Construct: human IP6K3 (1-410) gene; made in house; host or cells: BL21 (DE3) Escherichia coli
TEST_METHOD_NOTES: IP6K enzyme inhibitory assay (ADP-Glo Kinase Assay), human IP6K3
Type: biochemical
CONDITION_SUMMARY: compound concentration 0.1 μM; read-out: ADP-Glo method inhibitory rate (%) human IP6K3
REPORTED_PROPERTY: inhibition at 0.1 µM (%)

Cc1ncccc1O[C@H]1CC[C@@]2(CC1)C(=O)Nc1ccc(C(=O)O)cc12    88
O=C(O)c1ccc2c(c1)[C@]1(CC[C@@H](Oc3cc(F)cc(F)c3)CC1)C(=O)N2    90
Cc1ccc(C#N)c(O[C@H]2CC[C@]3(CC2)C(=O)Nc2ccc(C(=O)O)cc23)n1    98
Cc1cc(Cl)cnc1O[C@H]1CC[C@]2(CC1)C(=O)Nc1ccc(C(=O)O)nc12    100
O=C(O)c1ccc2c(c1)[C@]1(CC[C@@H](Oc3ccc(F)c(F)c3)CC1)C(=O)N2    99
O=C(O)c1ccc2c(c1)[C@]1(CC[C@@H](Oc3ccc(Cl)cc3)CC1)C(=O)N2    96
N#Cc1cccc(F)c1O[C@H]1CC[C@@]2(CC1)C(=O)Nc1ccc(C(=O)O)cc12    99
Cc1ccc(C(F)(F)F)c(O[C@H]2CC[C@@]3(CC2)C(=O)Nc2ccc(C(=O)O)cc23)n1    92

* * *

TEST_TARGET: human IP6K3 (Homo sapiens, UniProt Q96PC2)
Construct: human IP6K3 (1-410) gene; made in house; host or cells: BL21 (DE3) Escherichia coli
Sequence (Q96PC2 whole entry): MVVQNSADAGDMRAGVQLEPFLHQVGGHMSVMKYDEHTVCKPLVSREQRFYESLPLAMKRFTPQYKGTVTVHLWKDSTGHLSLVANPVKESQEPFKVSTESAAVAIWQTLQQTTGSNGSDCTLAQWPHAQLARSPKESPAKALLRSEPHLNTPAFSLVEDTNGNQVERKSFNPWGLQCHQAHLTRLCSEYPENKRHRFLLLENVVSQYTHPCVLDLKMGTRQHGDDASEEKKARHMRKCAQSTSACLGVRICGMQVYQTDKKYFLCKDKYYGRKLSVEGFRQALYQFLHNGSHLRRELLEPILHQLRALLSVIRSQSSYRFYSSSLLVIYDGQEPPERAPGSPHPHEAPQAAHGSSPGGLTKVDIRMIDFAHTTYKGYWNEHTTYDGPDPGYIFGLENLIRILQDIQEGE
TEST_METHOD_NOTES: IP6K enzyme inhibitory assay (ADP-Glo Kinase Assay), human IP6K3
Type: biochemical
CONDITION_SUMMARY: compound concentration 0.1 μM; read-out: ADP-Glo method inhibitory rate (%) human IP6K3
REPORTED_PROPERTY: inhibition at 0.1 µM (%)

O=C(O)c1ccc2c(c1)[C@]1(CC[C@H](Oc3ccc(Cl)cc3Cl)CC1)C(=O)N2 [Example 15]    91
O=C(O)c1ccc2c(n1)[C@]1(CC[C@@H](Oc3ncc(Cl)cc3C(F)(F)F)CC1)C(=O)N2 [Example 99]    83
O=C(O)c1ccc2c(n1)[C@]1(CC[C@H](Oc3c(F)cc(Cl)cc3F)CC1)C(=O)N2 [Example 86]    80

1 = Cc1ccc(O[C@H]2CC[C@@]3(CC2)C(=O)Nc2ccc(C(=O)O)cc23)nc1 [Example 20]
2 = O=C(O)c1ccc2c(n1)[C@]1(CC[C@@H](Oc3ccccc3Cl)CC1)C(=O)N2 [Example 90]
Exam item: Would you mind telling me which has the lower recorded inhibition at 0.1 µM between 1 and 2 ? State your choice using its label.
Marked response: 2
(2: 61%, 1: 98%)

* * *

TEST_TARGET: human IP6K2 (Homo sapiens)
Construct: human IP6K2 (1-426) gene; GST; made in house; host or cells: Sf-9 insect cells
TEST_METHOD_NOTES: IP6K enzyme inhibitory assay (ADP-Glo Kinase Assay), human IP6K2
Type: biochemical
CONDITION_SUMMARY: compound concentration 0.1 μM; read-out: ADP-Glo method inhibitory rate (%) human IP6K2
REPORTED_PROPERTY: inhibition at 0.1 µM (%)

O=C(O)c1ccc2c(c1)[C@]1(CC[C@H](Oc3ccc(Cl)cc3Cl)CC1)C(=O)N2    101

1 = O=C(O)c1ccc2c(n1)[C@]1(CC[C@@H](Oc3ccc(F)cc3F)CC1)C(=O)N2
2 = O=C(O)c1ccc2c(c1)[C@]1(CC[C@@H](Oc3cccc(C(F)(F)F)c3F)CC1)C(=O)N2
Exam item: Would you mind telling me which has the lower recorded inhibition at 0.1 µM between 1 and 2 ? State your choice using its label.
Marked response: 1

* * *

TEST_TARGET: human IP6K2 (Homo sapiens, UniProt Q9UHH9)
Construct: human IP6K2 (1-426) gene; GST; made in house; host or cells: Sf-9 insect cells
TEST_METHOD_NOTES: IP6K enzyme inhibitory assay (ADP-Glo Kinase Assay), human IP6K2
Assay type: biochemical
CONDITION_SUMMARY: compound concentration 0.1 μM; read-out: ADP-Glo method inhibitory rate (%) human IP6K2
REPORTED_PROPERTY: inhibition at 0.1 µM (%)

Please review the following examples before continuing.
O=C(O)c1ccc2c(c1)[C@]1(CC[C@@H](Oc3ccc(F)c(F)c3)CC1)C(=O)N2    95
Cc1cc(Cl)cc(C)c1O[C@H]1CC[C@]2(CC1)C(=O)Nc1ccc(C(=O)O)nc12    14
COc1cc(Cl)ccc1O[C@H]1CC[C@]2(CC1)C(=O)Nc1ccc(C(=O)O)cc12    100
Cn1nc(O[C@H]2CC[C@@]3(CC2)C(=O)Nc2ccc(C(=O)O)cc23)cc1C(F)(F)F    82

P = Cc1ccc(O[C@H]2CC[C@@]3(CC2)C(=O)Nc2ccc(C(=O)O)cc23)cc1C
Q = Cc1cncc(O[C@H]2CC[C@@]3(CC2)C(=O)Nc2ccc(C(=O)O)cc23)c1
Exam item: // compare measured inhibition at 0.1 µM, left P , right Q , return larger State your choice using its label.
Marked response: P
(P: 98%, Q: 40%)

* * *

TEST_TARGET: human IP6K3 (Homo sapiens)
Construct: human IP6K3 (1-410) gene; made in house; host or cells: BL21 (DE3) Escherichia coli
TEST_METHOD_NOTES: IP6K enzyme inhibitory assay (ADP-Glo Kinase Assay), human IP6K3
Assay type: biochemical
CONDITION_SUMMARY: compound concentration 0.1 μM; read-out: ADP-Glo method inhibitory rate (%) human IP6K3
REPORTED_PROPERTY: inhibition at 0.1 µM (%)

O=C(O)c1ccc2c(n1)[C@]1(CC[C@@H](Oc3ncc(C4CC4)cc3Cl)CC1)C(=O)N2 [Example 16]    98
O=C(O)c1ccc2c(c1)[C@]1(CC[C@@H](Oc3ncc(F)cc3F)CC1)C(=O)N2 [Example 4]    99
Cc1cc(F)ccc1O[C@H]1CC[C@@]2(CC1)C(=O)Nc1ccc(C(=O)O)cc12 [Example 50]    96
O=C(O)c1ccc2c(c1)[C@]1(CC[C@@H](Oc3ncc(C(F)(F)F)cc3Cl)CC1)C(=O)N2 [Example 29]    99
O=C(O)c1ccc2c(n1)[C@]1(CC[C@@H](Oc3ccc(Cl)cc3)CC1)C(=O)N2 [Example 92]    98
O=C(O)c1ccc2c(n1)[C@]1(CC[C@H](Oc3ccc(Cl)cc3)CC1)C(=O)N2 [Example 88]    97
O=C(O)c1ccc2c(c1)[C@]1(CC[C@@H](Oc3cc(F)cc(C(F)(F)F)c3)CC1)C(=O)N2 [Example 76]    86
Cc1cc(C(F)(F)F)cnc1O[C@H]1CC[C@@]2(CC1)C(=O)Nc1ccc(C(=O)O)nc12 [Example 112]    97
Cn1nc(O[C@H]2CC[C@@]3(CC2)C(=O)Nc2ccc(C(=O)O)cc23)cc1C(F)(F)F [Example 80]    89
Cc1cc(C)c(O[C@H]2CC[C@@]3(CC2)C(=O)Nc2ccc(C(=O)O)cc23)cn1 [Example 36]    95
